method: in vivo
test_parameters: both, cynomolgus monkey, iv, 15 mg/kg, CL, cynomolgus, 15 mg/kg i.v., Day 1, mean
Where a SMILES comes first, the peptide text is derived from it. Bridges are numbered along the chain shown (N, C = ends).
outcome_measure: clearance (mL/min/kg)
All answers are understood in mL/min/kg, so give the number only.

Dear colleague, I am looking for the recorded clearance of the following compound: CC[C@H](C)[C@@H]1NC(=O)[C@@H]2CSSC[C@H](NC(=O)[C@H](CCCNC(=N)N)NC(=O)[C@@H]3CSSC[C@H](NC1=O)C(=O)N[C@@H]([C@@H](C)O)C(=O)N[C@@H](CCCNC(=N)N)C(=O)NCC(=O)N[C@@H](Cc1ccccc1)C(=O)N3)C(=O)N[C@@H](CC(C)C)C(=O)N[C@H]1CSSC[C@H](NC(=O)[C@H](C(C)C)NC(=O)CNC(=O)[C@H](CCCNC(=N)N)NC(=O)[C@H](CCCNC(=N)N)NC1=O)C(=O)N[C@@H](CCCNC(=N)N)C(=O)N2 [Peptide 1] (cyclo(GFCRCLCRRGVCRCICTR); disulfide 3-16, 5-14, 7-12) 1.9

====

method: in vivo
test_parameters: both, cynomolgus monkey, iv, 1 mg/kg, Cmax, cynomolgus, 1 mg/kg i.v., Day 1, mean
Where a SMILES comes first, the peptide text is derived from it. Bridges are numbered along the chain shown (N, C = ends).
outcome_measure: Cmax (ng/mL)
The reply should be a number in ng/mL, with the unit left off.

Which Cmax value is on record for CC[C@H](C)[C@@H]1NC(=O)[C@@H]2CSSC[C@H](NC(=O)[C@H](CCCNC(=N)N)NC(=O)[C@@H]3CSSC[C@H](NC1=O)C(=O)N[C@@H]([C@@H](C)O)C(=O)N[C@@H](CCCNC(=N)N)C(=O)NCC(=O)N[C@@H](Cc1ccccc1)C(=O)N3)C(=O)N[C@@H](CC(C)C)C(=O)N[C@H]1CSSC[C@H](NC(=O)[C@H](C(C)C)NC(=O)CNC(=O)[C@H](CCCNC(=N)N)NC(=O)[C@H](CCCNC(=N)N)NC1=O)C(=O)N[C@@H](CCCNC(=N)N)C(=O)N2 [Peptide 1] (cyclo(GFCRCLCRRGVCRCICTR); disulfide 3-16, 5-14, 7-12) ? 2560

====

method: in vivo
test_parameters: both, cynomolgus monkey, iv, 15 mg/kg/day, AUC0-∞, cynomolgus, 15 mg/kg/day i.v., Day 4, mean
Where a SMILES comes first, the peptide text is derived from it. Bridges are numbered along the chain shown (N, C = ends).
outcome_measure: AUC(0-inf)
Returns: string containing the number followed by the unit.

What does the record list as AUC(0-inf) for CC[C@H](C)[C@@H]1NC(=O)[C@@H]2CSSC[C@H](NC(=O)[C@H](CCCNC(=N)N)NC(=O)[C@@H]3CSSC[C@H](NC1=O)C(=O)N[C@@H]([C@@H](C)O)C(=O)N[C@@H](CCCNC(=N)N)C(=O)NCC(=O)N[C@@H](Cc1ccccc1)C(=O)N3)C(=O)N[C@@H](CC(C)C)C(=O)N[C@H]1CSSC[C@H](NC(=O)[C@H](C(C)C)NC(=O)CNC(=O)[C@H](CCCNC(=N)N)NC(=O)[C@H](CCCNC(=N)N)NC1=O)C(=O)N[C@@H](CCCNC(=N)N)C(=O)N2 [Peptide 1] (cyclo(GFCRCLCRRGVCRCICTR); disulfide 3-16, 5-14, 7-12) ? 167 µg·h/mL
